biological target: T1, K280-ac protein fragment (human); experiment: ELISA on K280-ac coated at 250 ng/well, HRP anti-human IgG
T1 construct: also called mAC
T1 peptide: VQIINK(Ac)KLDLSN
Ends that are not written are not given here.
Label Condition met when Absorbance at 450nm at 0.12ug/well is at or above 1; anything below gets Condition not met.

INSERT INTO measurements (binder, assigned_label) VALUES
  ('ADEL-Y01h01_v01 antibody (antibody, V domains shown, Humanized ADEL-Y01m; It was detected with anti-human IgG; also called ADEL-Y01h v01) VH: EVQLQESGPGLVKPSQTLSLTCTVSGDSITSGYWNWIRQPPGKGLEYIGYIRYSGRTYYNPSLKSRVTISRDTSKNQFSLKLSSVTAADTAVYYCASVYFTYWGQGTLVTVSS VL: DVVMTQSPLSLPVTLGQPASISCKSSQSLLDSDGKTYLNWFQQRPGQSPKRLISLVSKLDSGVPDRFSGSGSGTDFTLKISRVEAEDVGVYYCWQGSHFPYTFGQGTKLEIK', 'Condition met'),
  ('ADEL-Y01h v02 antibody (antibody, V domains shown, Humanized antibody; It was detected with anti-human IgG; also called Y01h01v02) VH: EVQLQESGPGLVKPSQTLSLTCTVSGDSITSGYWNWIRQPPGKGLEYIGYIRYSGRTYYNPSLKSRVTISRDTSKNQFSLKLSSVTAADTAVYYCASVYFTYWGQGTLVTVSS VL: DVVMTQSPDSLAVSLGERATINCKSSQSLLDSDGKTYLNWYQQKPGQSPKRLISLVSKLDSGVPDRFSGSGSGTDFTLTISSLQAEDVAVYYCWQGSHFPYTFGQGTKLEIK', 'Condition not met'),
  ('ADEL-Y01h v04 antibody (antibody, V domains shown, Humanized antibody; It was detected with anti-human IgG; also called Y01h01v04) VH: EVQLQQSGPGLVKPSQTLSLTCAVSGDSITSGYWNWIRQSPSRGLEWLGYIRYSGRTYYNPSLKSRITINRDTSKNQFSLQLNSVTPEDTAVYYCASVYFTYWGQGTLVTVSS VL: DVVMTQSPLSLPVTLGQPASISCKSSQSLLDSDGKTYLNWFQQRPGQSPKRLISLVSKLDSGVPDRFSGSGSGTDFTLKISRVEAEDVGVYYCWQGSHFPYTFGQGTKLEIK', 'Condition met'),
  ('ADEL-Y01h v09 antibody (antibody, V domains shown, Humanized antibody; It was detected with anti-human IgG; also called Y01h01v09) VH: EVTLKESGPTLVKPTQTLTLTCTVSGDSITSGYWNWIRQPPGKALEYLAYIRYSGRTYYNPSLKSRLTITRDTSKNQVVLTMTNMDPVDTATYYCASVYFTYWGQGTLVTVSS VL: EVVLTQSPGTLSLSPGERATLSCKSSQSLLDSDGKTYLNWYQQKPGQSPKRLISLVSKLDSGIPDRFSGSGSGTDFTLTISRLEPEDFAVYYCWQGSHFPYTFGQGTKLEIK', 'Condition met'),
  ('ADEL-Y01h v03 antibody (antibody, V domains shown, Humanized antibody; It was detected with anti-human IgG; also called Y01h01v03) VH: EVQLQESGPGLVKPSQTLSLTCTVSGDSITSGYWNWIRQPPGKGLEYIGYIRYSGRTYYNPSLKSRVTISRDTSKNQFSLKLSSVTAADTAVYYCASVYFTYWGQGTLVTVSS VL: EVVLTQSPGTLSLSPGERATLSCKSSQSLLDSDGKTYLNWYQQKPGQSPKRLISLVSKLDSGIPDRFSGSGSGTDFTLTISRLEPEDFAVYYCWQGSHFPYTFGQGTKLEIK', 'Condition not met');
